Taken from PubChem BioAssay (EPA / NIEHS).

Biological target: Cellular tumor antigen p53 (Homo sapiens)
Test: TOX21_p53_BLA_p2_ratio: Tox21 HCT-116 p53 Agonism Beta-lactamase Assay, Ratio, Phase 2 (AID 2283592)
Records with an inconclusive call do not appear. The source made the active and inactive calls. Rule for the calls: active = hit-call score of the fitted dose curve at least 0.9, where 1 is the maximum; inconclusive = response in the unintended direction; inactive = score below 0.9.
Allowed answers: active, inactive

Just curious, what result did COCC(C)OC(C)=O (centres undefined) get here?
inactive

Just curious, what result did C=C(C)C(=O)OCCNC(C)(C)C get here?
inactive

Just curious, what result did OC[C@]1(O)OC[C@@H](O)[C@H](O)[C@@H]1O get here?
inactive

Just curious, what result did CCCc1ccc(C(=O)O)cc1 get here?
inactive

Just curious, what result did COc1cc(C(=O)OC(COCCC(C)C)CN2CCOCC2)cc(OC)c1OC (centres undefined) get here?
inactive

Just curious, what result did CC(C)NCC(O)c1ccc2ccccc2c1 (centres undefined) get here?
inactive

Just curious, what result did Cc1ccc2nc(N)[nH]c(=O)c2c1Sc1ccncc1 get here?
active

Just curious, what result did NC1(c2ccc(-c3nc4ccn5c(=O)[nH]nc5c4cc3-c3ccccc3)cc2)CCC1 get here?
inactive

Just curious, what result did Cc1cnc(C(=O)O)c[n+]1[O-] get here?
inactive

Just curious, what result did O=[N+]([O-])c1cc(C2CCCCC2)c(O)c([N+](=O)[O-])c1 get here?
active

Just curious, what result did COC(c1ccccc1)(c1ccccc1)[C@H](Oc1nc(C)cc(C)n1)C(=O)O get here?
inactive

Just curious, what result did O=C(O)c1cccc(C(=O)O)c1C(=O)O get here?
inactive

Just curious, what result did CC(C)C[C@H](NC(=O)CNC(=O)[C@H](Cc1ccc(O)cc1)NC(=O)[C@H](CO)NC(=O)[C@H](Cc1c[nH]c2ccccc12)NC(=O)[C@H](Cc1cnc[nH]1)NC(=O)[C@@H]1CCC(=O)N1)C(=O)N[C@@H](CCCN=C(N)N)C(=O)N1CCC[C@H]1C(=O)NCC(N)=O (stereo in doubt) get here?
inactive

Just curious, what result did C[N+]1(C)CCC(OC(=O)C(O)(c2ccccc2)C2CCCC2)C1 (centres undefined) get here?
inactive

Just curious, what result did O=C(NC1CCN(CCc2c[nH]c3ccccc23)CC1)c1ccccc1 get here?
inactive

Just curious, what result did Cc1cc2nc(N)sc2cc1C get here?
inactive

Just curious, what result did CC(C)(c1ccc(Oc2ccc3c(c2)C(=O)OC3=O)cc1)c1ccc(Oc2ccc3c(c2)C(=O)OC3=O)cc1 get here?
inactive

Just curious, what result did CN=C(N)NCCC[C@H](N)C(=O)O get here?
inactive

Just curious, what result did CC(C[N+](C)(C)C)OC(N)=O (centres undefined) get here?
inactive

Just curious, what result did Oc1c(Cl)cc(Cl)c2cccnc12 get here?
active

Just curious, what result did O=C(Cl)c1ccccc1[N+](=O)[O-] get here?
inactive

Just curious, what result did O=C(Nc1ccc(/C=C/c2ccc(NC(=O)c3cc(S(=O)(=O)O)c4cccnc4c3O)cc2S(=O)(=O)O)c(S(=O)(=O)O)c1)c1cc(S(=O)(=O)O)c2cccnc2c1O get here?
inactive

Just curious, what result did Cc1nccn1CC1CCc2c(c3ccccc3n2C)C1=O (centres undefined) get here?
inactive

Just curious, what result did CC(=O)OCC(=O)[C@@]1(O)[C@H](OC(C)=O)C[C@H]2[C@@H]3CCC4=CC(=O)C=C[C@]4(C)[C@@]3(F)[C@@H](O)C[C@@]21C get here?
inactive

Just curious, what result did Nc1ccc(Oc2ccc(Cl)cc2)cc1 get here?
inactive

Just curious, what result did C[C@H](CCC(=O)O)[C@H]1CC[C@H]2[C@@H]3[C@H](O)C[C@@H]4C[C@H](O)CC[C@]4(C)[C@H]3CC[C@]12C get here?
inactive

Just curious, what result did COc1c(C)c2c(c(O)c1C/C=C(\C)CCC(=O)OCCN1CCOCC1)C(=O)OC2 get here?
active

Just curious, what result did CCCCCCCCS(=O)(=O)Cl get here?
inactive

Just curious, what result did CCCCCCCCCCCC[N+](C)(C)CC(=O)O get here?
inactive

Just curious, what result did CCOC(=O)[C@H](CCc1ccccc1)N[C@@H](C)C(=O)N(CC(=O)O)C1Cc2ccccc2C1 get here?
inactive

Just curious, what result did O=C1NC(=O)C2CC=CCC12 (centres undefined) get here?
inactive

Just curious, what result did COc1ccc2c(=O)c(C)c(-c3ccccc3)oc2c1CN(C)C get here?
inactive

Just curious, what result did CC(=O)CC(=O)c1ccccc1 get here?
inactive

Just curious, what result did O=C1CCC(=O)O1 get here?
inactive

Just curious, what result did CCOc1cc(OCC)c(C(C)=O)cc1OCC get here?
inactive

Just curious, what result did CC[C@@H](C)[C@@H](N)C(=O)O get here?
inactive

Just curious, what result did CC[C@@]1(O)C(=O)OCc2c1cc1n(c2=O)Cc2cc3c([N+](=O)[O-])cccc3nc2-1 get here?
active

Just curious, what result did C#C[C@]1(O)CC[C@H]2[C@@H]3CCc4cc(OC5CCCC5)ccc4[C@H]3CC[C@@]21C get here?
inactive

Just curious, what result did CCN(CC)C(=O)/C(C#N)=C/c1cc(O)c(O)c([N+](=O)[O-])c1 get here?
active

Just curious, what result did O=C(Nc1ccc(Br)cc1)c1cc(Br)c(Br)s1 get here?
inactive

Just curious, what result did NCCCNCCCCNC(=O)C(O)NC(=O)CCCCCCN=C(N)N (centres undefined) get here?
inactive

Just curious, what result did O=C=Nc1cccc(C(F)(F)F)c1 get here?
active

Just curious, what result did Nc1nc(Cl)nc2c1ncn2[C@@H]1O[C@H](CO)[C@@H](O)[C@@H]1F get here?
active

Just curious, what result did O=C(NN=Cc1ccc([N+](=O)[O-])o1)c1ccc(O)cc1 get here?
active
